Cited source for all entries: PubChem BioAssay (EPA / NIEHS)

- assay-name: CCTE_Shafer_MEA_dev_network_spike_duration_std: CCTE's Neural Network Formation Assay for Standard Deviation of Network Spike Duration, Shafer Lab (AID 2284052);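 further: area under curve of spike duration SD across recording days 5 to 12; hits are decreases in network spike duration SD versus DMSO vehicle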
Calls of active or inactive are those of the source. How the source made its calls: active means hit-call score of the fitted dose curve at least 0.9, where 1 is the maximum; inactive means score below 0.9.
A correct response names exactly one class from true (1) = active, false (0) = inactive

// known answers, use as guide
compound	answer-label
c1ccc2c(c1)Cc1ccccc1-2	false (0)
c1ccc2cc3c(ccc4ccccc43)cc2c1	false (0)
CN1CCC[C@H]1c1cccnc1	false (0)
CC(O)CO (configuration not stated)	false (0)
OCCC(F)(F)C(F)(F)C(F)(F)C(F)(F)C(F)(F)C(F)(F)C(F)(F)C(F)(F)F	false (0)
C=C(C)C(=O)OCCC(F)(F)C(F)(F)C(F)(F)C(F)(F)C(F)(F)C(F)(F)F	false (0)

Q: Kindly provide the recorded test outcome for the following compound: CC1=C(/C=C/C(C)=C/C=C/C(C)=C/C(=O)O)C(C)(C)CCC1
Result: true (1)

###

- Read-out: Glutamate-cysteine ligase catalytic (GCLC), GCLC (gene 2729)
- assay-name: LTEA_HepaRG_GCLC: Life Technologies and Expression Analysis (LTEA) Assay for Glutamate-cysteine ligase catalytic (GCLC) using HepaRG (AID 2283498)
- condition-parameters: mRNA level, 48 h; actives raise or lower the signal
The source made the active and inactive calls. The calls were made as follows: active = hit-call score of the fitted dose curve at least 0.9, where 1 is the maximum; inactive = score below 0.9.
A correct response names exactly one class from yes (active), no (inactive)

// known answers, use as guide
compound	answer-label
COCC(C)O (stereo not drawn)	no
CCCCCCCCCCCCN1CCCC1=O	no
Cc1cc(CCN2CCN(c3nsc4ccccc34)CC2)cc2c1NC(=O)CC2(C)C	no
Oc1cccc(O)c1	no
CCCCC(CC)COC(=O)CCCCC(=O)OCc1ccccc1 (stereo not drawn)	no
CC(=O)CC(C)(C)O	no
CCC(C)(C)C1CCC(O)CC1 (stereo not drawn)	no
CCCCCCCCCCCCc1ccccc1S(=O)(=O)O	no

Q: Kindly provide the recorded test outcome for the following compound: CC(=O)NC1(c2cccc(F)c2)CCN(CC[C@@]2(c3ccc(Cl)c(Cl)c3)CN(c3ccccc3)C(=O)CO2)CC1
Result: no

Q: Note, next up: Cc1oc(-c2ccccc2)nc1CCOc1ccc(C[C@H](Nc2ccccc2C(=O)c2ccccc2)C(=O)O)cc1
Result: yes

Q: Note, next up: CN1CCC[C@H]1c1cccnc1
Result: no

Q: Note, next up: CC[C@H](C)[C@@H](C(=O)O)n1sc2ccccc2c1=O
Result: no

Q: Note, next up: Cc1cc(C)c(O)c(C)c1
Result: no

Q: Note, next up: C[C@@H]1C[C@H]2[C@@H]3CCC4=CC(=O)C=C[C@]4(C)[C@@]3(F)[C@@H](O)C[C@]2(C)[C@@]1(O)C(=O)COP(=O)(O)O
Result: no

###

- Read-out: Plasminogen activator inhibitor-1 (PAI1), SERPINE1 (gene 5054)
- assay-name: BSK_BE3C_PAI1: BioMAP Diversity Plus: BE3C Assay for Plasminogen activator inhibitor-1 (PAI1) Biomarker Activity (AID 2283037)
- condition-parameters: primary human bronchial epithelial cells; actives raise or lower the signal
Activity calls are given as the source filed them. How the source made its calls: active means hit-call score of the fitted dose curve at least 0.9, where 1 is the maximum; inactive means score below 0.9.
A correct response names exactly one class from yes (1) for active, no (0) for inactive

Q: Kindly provide the recorded test outcome for the following compound: Nc1cccc2c(N)cccc12
Result: no (0)

Q: Note, next up: CCc1ccc(CCOc2ccc(CC3SC(=O)NC3=O)cc2)nc1 (stereo unspecified)
Result: no (0)

Q: Note, next up: O=c1c(-c2ccc(O)cc2)coc2cc(O)ccc12
Result: no (0)

Q: Note, next up: FC(F)(I)C(F)(F)C(F)(F)C(F)(F)C(F)(F)C(F)(F)I
Result: yes (1)

Q: Note, next up: CC1=C(/C=C/C(C)=C/C=C/C(C)=C/C(=O)O)C(C)(C)CCC1
Result: no (0)

Q: Note, next up: ClC1=C(Cl)C(Cl)(Cl)C(Cl)=C1Cl
Result: yes (1)

###

- Read-out: CYP2C9 (gene 1559)
- assay-name: LTEA_HepaRG_CYP2C9: Life Technologies and Expression Analysis (LTEA) Assay for CYP2C9 using HepaRG (AID 2283484)
- condition-parameters: mRNA level, 48 h; actives raise or lower the signal
Activity calls are given as the source filed them. How the source made its calls: active means hit-call score of the fitted dose curve at least 0.9, where 1 is the maximum; inactive means score below 0.9.
A correct response names exactly one class from active, inactive

Q: Kindly provide the recorded test outcome for the following compound: CCc1nn(C2CCCCC2)c2cc(C3(C#N)CCC(C(=O)O)CC3)ccc12 (stereo not given)
Result: active

Q: Note, next up: NC(=O)N1C(=O)C(C(=O)c2cc(Cl)cs2)c2cc(F)c(Cl)cc21 (stereo not given)
Result: active

Q: Note, next up: c1ccc2cc3c(ccc4ccccc43)cc2c1
Result: active

Q: Note, next up: CCCCCCCCCCCCCCCS(=O)(=O)Oc1ccccc1
Result: inactive

Q: Note, next up: Oc1cccc(O)c1
Result: inactive

###

- assay-name: BSK_BE3C_SRB: Viability Assessment in the BioMAP Diversity Plus: BE3C Assay (AID 2283028);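 further: measured 24 h after chemical dosing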
- condition-parameters: primary human bronchial epithelial cells
Active and inactive are the calls of the source. Rule for the calls: active = hit-call score of the fitted dose curve at least 0.9, where 1 is the maximum; inactive = score below 0.9.
A correct response names exactly one class from active, inactive

// known answers, use as guide
compound	answer-label
CN(C)C=O	inactive
CC[C@H](C)[C@@H](C(=O)O)n1sc2ccccc2c1=O	inactive
CCC(C)(C)C1CCC(O)CC1 (stereo unspecified)	inactive
O=C(O)Cc1cc(I)c(Oc2cc(I)c(O)c(I)c2)c(I)c1	active
CCN(CC)CCNc1ccc(CNC=O)c2sc3ccc(OC)cc3c(=O)c12	inactive

Let us examine a further case.
Q: Kindly provide the recorded test outcome for the following compound: C=C(C)C(=O)OCCC(F)(F)C(F)(F)C(F)(F)C(F)(F)C(F)(F)C(F)(F)F
Result: inactive

###

- assay-name: CCTE_Shafer_MEA_acute_AB: CCTE's Alamar Blue Assay for Cytotoxicity in the Neural Acute Assay, Shafer Lab (AID 2284069);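 further: active compounds lower the viability signal compared with DMSO wells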
Inconclusive results are not listed. Active and inactive are the calls of the source. Rule for the calls: active = hit-call score of the fitted dose curve at least 0.9, where 1 is the maximum; inconclusive = response in the unintended direction; inactive = score below 0.9.
A correct response names exactly one class from 1.0 (active), 0.0 (inactive)

molecule	answer-label
CCc1ccc(CCOc2ccc(CC3SC(=O)NC3=O)cc2)nc1 (centres undefined)	0.0
CCCCCCCCCCCCc1ccccc1S(=O)(=O)O	0.0
CN1CCC[C@H]1c1cccnc1	0.0
OC1CCC(C2CCCCC2)CC1 (centres undefined)	0.0

Q: Kindly provide the recorded test outcome for the following molecule: O=C(O)c1ccccc1C(c1ccc(O)cc1)c1ccc(O)cc1
Result: 0.0

###

- subject-of-test: Muscarinic acetylcholine receptor M1 (Homo sapiens)
- assay-name: NVS_GPCR_hM1: NovaScreen (NVS) G Protein-Coupled Receptor Assay for human Muscarinic, M1 Receptor (AID 2283270)
Results filed as inconclusive are left out. Activity calls are given as the source filed them. The calls were made as follows: active = hit-call score of the fitted dose curve at least 0.9, where 1 is the maximum; inconclusive = response in the unintended direction; inactive = score below 0.9.
A correct response names exactly one class from active, inactive

// known answers, use as guide
structure-smiles-string	subject-of-test	answer-label
CCN(CC)CCNc1ccc(CNC=O)c2sc3ccc(OC)cc3c(=O)c12	Muscarinic acetylcholine receptor M1 (Homo sapiens)	active
CCCCCCCCCCCCc1ccccc1S(=O)(=O)O	Muscarinic acetylcholine receptor M1 (Homo sapiens)	active
CCCCCCCC(=O)O	Muscarinic acetylcholine receptor M1 (Homo sapiens)	inactive

Q: Kindly provide the recorded test outcome for the following compound: Cc1oc(-c2ccccc2)nc1CCOc1ccc(C[C@H](Nc2ccccc2C(=O)c2ccccc2)C(=O)O)cc1
Result: inactive

###

- Read-out: Insulin-like growth factor-binding protein 1 (IGFBP1), IGFBP1 (gene 3484)
- assay-name: LTEA_HepaRG_IGFBP1: Life Technologies and Expression Analysis (LTEA) Assay for Insulin-like growth factor-binding protein 1 (IGFBP1) using HepaRG (AID 2283508)
- condition-parameters: mRNA level, 48 h; actives raise or lower the signal
Active and inactive are the calls of the source. Rule for the calls: active = hit-call score of the fitted dose curve at least 0.9, where 1 is the maximum; inactive = score below 0.9.
A correct response names exactly one class from active, inactive

// known answers, use as guide
compound	answer-label
Cc1cc(C)c(O)c(C)c1	inactive
CCCOc1sc(C(=O)N2CCC(c3cc(CN)ccc3F)CC2)c(C)c1Br	inactive
N#C[C@@H]1CC(F)(F)CN1C(=O)CNC1CC2CCC(C1)N2c1ncccn1 (stereo partly specified)	inactive
CCCCCCCCCCCCCCCS(=O)(=O)Oc1ccccc1	inactive
Oc1cccc(O)c1	inactive
O=C(O)c1ccccc1C(c1ccc(O)cc1)c1ccc(O)cc1	inactive
CC(C)(C)c1cccc(C(C)(C)C)c1O	inactive
CC#C[C@]1(O)CC[C@H]2[C@@H]3CCC4=CC(=O)CCC4=C3[C@@H](c3ccc(N(C)C)cc3)C[C@@]21C	active

Q: Kindly provide the recorded test outcome for the following compound: OCCC(F)(F)C(F)(F)C(F)(F)C(F)(F)C(F)(F)C(F)(F)F
Result: inactive

Q: Note, next up: CCCCOCCO
Result: inactive

Q: Note, next up: C[C@@H]1C[C@H]2[C@@H]3CCC4=CC(=O)C=C[C@]4(C)[C@@]3(F)[C@@H](O)C[C@]2(C)[C@@]1(O)C(=O)COP(=O)(O)O
Result: inactive
